Test system: SK-MEL-28 melanoma
Assay: NCI tumour cell line growth inhibition, 48 h
Item-by-item account of TGI

Previously resolved entries follow.
O=C1/C(=C/c2ccccc2)CN(C(=O)/C=C/c2ccccc2)C/C1=C\c1ccccc1	21.4 µM
CC(=O)OC1CCC2(C)C(=CCC3C2CCC2(C)C3CC3OC4(CCC(C)CN4)C(C)C32)C1 (stereo unspecified)	> 100 µM
CCc1cn(C2CC(CO)C(CO)S2)c(=O)[nH]c1=O (stereo unspecified)	> 100 µM
COc1ccccc1OC/C(N=Cc1cccnc1)=N/NC(=O)c1ccncc1	> 100 µM

Query: Request the reported TGI associated with Cc1ccc2c(n1)C(=O)c1cc(C)c(C)cc1C2=O
Reply: > 100 µM

Query: Request the reported TGI associated with O=C1c2ccccc2-n2c1nc1ccc([N+](=O)[O-])cc1c2=O
Reply: > 100 µM

----------
Tested on: KM12 colon
Experiment: NCI tumour cell line growth inhibition, 48 h
Item-by-item account of TGI

Previously resolved entries follow.
CC(=O)CC(=O)Nc1ccc(OS(N)(=O)=O)cc1	> 100 µM
CCCCCCCCCCCC(=O)OCC(O)CO (stereo not given)	75.6 µM
CC(C)(C)c1cc(C(C)(C)C)c(SSc2c(C(C)(C)C)cc(C(C)(C)C)c(O)c2O)c(O)c1O	25.4 µM

Query: Request the reported TGI associated with CC(C)CC1CC2C(=O)N(c3ccccc3)C(=O)C2c2[nH]c3ccccc3c21 (stereo not given)
Reply: > 100 µM

Query: Request the reported TGI associated with Cc1c2cnccc2c(C)c2c1c1ccccc1n2CCCCCCCl
Reply: > 50 µM

Query: Request the reported TGI associated with CCOC(=O)c1c(C)n(Cc2ccc(Cl)cc2Cl)c2c1cc(O)c1[nH]c(Cc3ccccc3)nc12
Reply: 4.62 µM

Query: Request the reported TGI associated with Fc1nc(-c2c3ccccc3c3sc4ccccc4n23)nc(N2CCOCCOCCOCCOCC2)n1
Reply: > 100 µM

Query: Request the reported TGI associated with COc1ccccc1NC(=S)Nc1ccccn1
Reply: > 100 µM

Query: Request the reported TGI associated with COC(=O)c1ccc(C)cc1C1CN=NC12Cc1c(C)cccc1C2=O (stereo not given)
Reply: > 84.8 µM

Query: Request the reported TGI associated with COc1cc(Br)c(C=Nc2cccc3ccc(OS(=O)(=O)c4ccc([N+](=O)[O-])cc4)cc23)cc1OC
Reply: > 100 µM

Query: Request the reported TGI associated with C[C@]12CC/C(=N\OCCN3CCCC3)C=C1CCC1C2CC[C@@]2(C)C1CC[C@]2(C)O (stereo not given in full)
Reply: 19.1 µM

----------
Item-by-item account of TGI
Test system: M19-MEL melanoma
Assay: NCI tumour cell line growth inhibition, 48 h
# number only, unit µM dropped from output

CCOC(=O)C(c1ccsc1)P(=O)(OCC)OCC (stereo not drawn)	25.7
CC[C@@]1(O)C(=O)OCc2c1cc1n(c2=O)Cc2cc3c(N)c(OC)ccc3nc2-1	1.46

Query: Request the reported TGI associated with CC12CC(Br)(Br)C(=O)C3C1CCCC32
Reply: 22.8

Query: Request the reported TGI associated with O=C1C2C3C=CC(C2C(=O)N1CN1CCOCC1)C1C2C(=O)N(CN4CCOCC4)C(=O)C2C31 (stereo not drawn)
Reply: 40.5

Query: Request the reported TGI associated with COc1cc(C2c3cc4c(cc3[C@@H](Nc3cnc5ccccc5c3)C3COC(=O)[C@H]23)OCO4)cc(OC)c1O (stereo partly drawn)
Reply: 3.28

----------
Test system: SW-620 colon
Assay: NCI tumour cell line growth inhibition, 48 h
Item-by-item account of TGI

O=[N+]([O-])c1cc2c(ccc3ccccc32)o1	5.91 µM
CCc1n[nH]c(=O)n1N	> 100 µM
COC(=O)c1ccc(C)cc1C1CN=NC12Cc1c(C)cccc1C2=O (configuration not stated)	> 100 µM
CCc1cccc(CC)c1Nc1nc(-c2ccccc2-c2ccccc2)cs1	> 100 µM
O=C1/C(=C/c2ccc([N+](=O)[O-])cc2)Oc2cc(O)ccc21	> 100 µM
CC1Nc2ccccc2NC1C=C(C#N)C#N (configuration not stated)	25.1 µM

Query: Request the reported TGI associated with CC(=O)NC1=C(NCCO)C(=O)c2ccccc2C1=O
Reply: > 50 µM

----------
Test system: SK-MEL-28 melanoma
Experiment: NCI tumour cell line growth inhibition, 48 h
Property: TGI

COc1cccc(/C=N/[N+](C)(C)C)c1O	> 10 µM
CC(C)OC(=O)NNc1c(Cl)cc(Cl)cc1Cl	> 100 µM
COc1cc(CNc2ccc(C)cc2)cc(OC)c1OC	> 100 µM

Query: Request the reported TGI associated with O=C1CC[C@@H]2[C@H]3CCC(=O)c4c3c(c3cccc(O)c3c4O)O[C@@]23C(=O)c2cccc(O)c2C(O)=C13
Reply: > 100 µM

Query: Request the reported TGI associated with CN(C)c1ccc(-c2nc(N)nc3c2CCCC3)cc1
Reply: > 100 µM

----------
Item-by-item account of GI50
Test system: TK-10 renal
Assay: NCI tumour cell line growth inhibition, 48 h

Query: Request the reported GI50 associated with Cc1nc2sc(C(=O)Nc3cccc4c3OCCO4)c(N)c2cc1C(C)O (centres undefined)
Reply: > 100 µM

Query: Request the reported GI50 associated with CCOC(=O)c1c(C)n(Cc2ccc(Cl)cc2Cl)c2c1cc(O)c1[nH]c(Cc3ccccc3)nc12
Reply: 7.07 µM

Query: Request the reported GI50 associated with COc1ccc(/C(=N/O)c2cc(F)c(F)c(OC)c2F)cc1O
Reply: 17.9 µM

Query: Request the reported GI50 associated with COc1ccc(C(=O)c2no[n+]([O-])c2C(=O)c2ccc(OC)cc2)cc1
Reply: 1.41 µM

----------
Test system: SR leukemia
Assay: NCI tumour cell line growth inhibition, 48 h
Item-by-item account of GI50

Previously resolved entries follow.
Cc1ccc(-c2csc3ncnc(Nc4cccc(O)c4)c23)cc1	15200 nM
CCn1cnc(C[C@H](NC(=O)[C@@H](NC(=O)Nc2cc(C(F)(F)F)cc(C(F)(F)F)c2)C(C)(C)C)C(=O)OC)c1	> 10000 nM

Let's switch to this compound now.
Query: Request the reported GI50 associated with CCOC(=O)c1c(C)n(Cc2ccc(Cl)cc2Cl)c2c1cc(O)c1[nH]c(Cc3ccccc3)nc12
Reply: 612 nM

----------
Test system: K-562 leukemia
Assay: NCI tumour cell line growth inhibition, 48 h
Item-by-item account of log10(TGI)
Heads up: the numbers are on a log10 scale; they represent TGI in µM.

Previously resolved entries follow.
CCc1n(Cc2ccc3ccccc3c2)cc[n+]1Cc1ccc2ccccc2c1	0.36
CCOC(=O)c1nc2sc(Cl)cn2c1/C=N/N=C(N)N	1.73
Cc1c(C(=O)Nc2ccc(Oc3ccnc4cc(OCC(C)(C)O)ccc34)c(F)c2)c(=O)n(-c2ccccc2)n1C	1.18
Nc1ccc(C(=O)NN2C(=O)C(Cl)C2c2ccc(O)cc2)cc1 (centres undefined)	1.69
COc1cc(C2c3cc4c(cc3[C@@H](Nc3cnc5ccccc5c3)C3COC(=O)[C@H]23)OCO4)cc(OC)c1O (some centres undefined)	0.87

Query: Request the reported log10(TGI) associated with COc1ccc(-n2c(C)nc3ccc(NC4OC(COC(C)=O)C(OC(C)=O)C(OC(C)=O)C4OC(C)=O)cc3c2=O)cc1 (centres undefined)
Reply: 1.90

----------
Test system: UACC-62 melanoma
Test: NCI tumour cell line growth inhibition, 48 h
Item-by-item account of TGI

NC(=S)N/N=C1\CCc2ccccc2C1	> 100 µM
COC(=O)c1ccc(C)cc1C1CN=NC12Cc1c(C)cccc1C2=O (centres undefined)	> 68.7 µM

Query: Request the reported TGI associated with CC[P+](C)(C)CC
Reply: > 100 µM

Query: Request the reported TGI associated with COc1cc(C2c3cc4c(cc3[C@@H](Nc3cnc5ccccc5c3)C3COC(=O)[C@H]23)OCO4)cc(OC)c1O (some centres undefined)
Reply: 2.06 µM

----------
Tested on: HCT-15 colon
Assay: NCI tumour cell line growth inhibition, 48 h
Property: GI50

O=C(NCCc1nccs1)c1cnc2c(S)cccc2c1	3.49 µM

Query: Hello, I am looking for reported GI50 with HCT-15 colon for N#C/C(=C\c1ccccn1)c1nc2ccccc2o1 . Could you help?
Reply: 20.7 µM

Query: Hello, I am looking for reported GI50 with HCT-15 colon for CCn1cnc(C[C@H](NC(=O)[C@@H](NC(=O)Nc2cc(C(F)(F)F)cc(C(F)(F)F)c2)C(C)(C)C)C(=O)OC)c1 . Could you help?
Reply: > 10 µM

Query: Hello, I am looking for reported GI50 with HCT-15 colon for COc1cc2c(cc1OCCCN1CCN(CCCOc3cc4c(cc3OC)C(=O)N3C[C@H](F)C[C@H]3C=N4)CC1)N=C[C@@H]1C[C@@H](F)CN1C2=O . Could you help?
Reply: 2.15 µM

Query: Hello, I am looking for reported GI50 with HCT-15 colon for CCCOC(=O)C1C(c2ccc(OC)cc2)NC(c2ccc(OC)cc2)C(C(=O)OCCC)S1(=O)=O (stereo not given) . Could you help?
Reply: > 100 µM
